experimentNotes: Liquid-liquid extraction from aqueous lithium-containing solution, ICP detection: lithium
cond: feed B1 (cLi 0.807, cNa 56.12 g/L, pH 11.48); organic phase and phase ratio per example
readoutLabel: extraction rate for lithium ions
# number then unit; no other words

Examples from the recorded data:
[[record]]
molecule = "CCC(O)C(=O)c1ccccc1 (single isomer, unassigned) [Example 4, 2-hydroxybutyrophenone]"
readoutlabel = "extraction rate for lithium ions"
valueobserved = "60.1%"

[[record]]
molecule = "CC1=NN(c2ccccc2)C(=O)C1C(=O)c1ccccc1 (centres unmarked) [Comparative Example 8, 1-phenyl-3-methyl-4-benzoyl-5-pyrazolone, reference compound]"
readoutlabel = "extraction rate for lithium ions"
valueobserved = "7.43%"

[[record]]
molecule = "CCCCCCOc1ccc(C(=O)c2ccccc2)c(O)c1 [Example 8, 4-hyxyloxy-2-hydroxydibenzophenone]"
readoutlabel = "extraction rate for lithium ions"
valueobserved = "67.0%"

[[record]]
molecule = "CCC(O)C(=O)c1ccccc1 (single isomer, unassigned) [Example 5, 2-hydroxybutyrophenone]"
readoutlabel = "extraction rate for lithium ions"
valueobserved = "80.5%"

[[record]]
molecule = "CCCCCCCOc1ccc(C(=O)c2ccccc2)c(O)c1 [Example 9, 4-heptoxy-2-hydroxydibenzophenone]"
readoutlabel = "extraction rate for lithium ions"
valueobserved = "60.8%"

[[record]]
molecule = "CC(=O)c1ccc(OCc2ccccc2)cc1O [Example 6, 4-benzyloxy-2-hydroxyacetophenone]"
readoutlabel = "extraction rate for lithium ions"
valueobserved = "34.7%"


Which extraction rate for lithium ions is listed for CC(O)C(=O)c1ccccc1 (centres unmarked) [Example 3, 2-hydroxypropiophenone] ? 52.5%

Which extraction rate for lithium ions is listed for COc1ccc(C(=O)c2ccc(OC)cc2O)c(O)c1 ? 83.6%

###

experimentNotes: Liquid-liquid extraction from aqueous lithium-containing solution, ICP detection: lithium
cond: feed B3 (cLi 0.937, cNa 119.10, cK 43.03 g/L, pH 9.60); organic phase and phase ratio per example
Attribute: extraction rate for lithium ions
Report the figure in % without appending any unit label.

[[record]]
molecule = "O=C(c1ccccc1)c1cc([N+](=O)[O-])c(OCc2ccccc2)cc1O"
valueobserved = 85.7

[[record]]
molecule = "CCCCCCCCCCCCCCCCCC(=O)CC(=O)c1ccccc1 [Comparative Example 5, stearoylbenzoylmethane, reference compound]"
valueobserved = 38.42

[[record]]
molecule = "CC1=NN(c2ccccc2)C(=O)C1C(=O)c1ccccc1 (stereo not shown) [Comparative Example 7, 1-phenyl-3-methyl-4-benzoyl-5-pyrazolone, reference compound]"
valueobserved = 1.28


Let's switch to this molecule now.
Which extraction rate for lithium ions is listed for CCCCCCCCOc1cc(O)c(C(=O)c2ccccc2)cc1[N+](=O)[O-] ? 64.7

###

Attribute: separation factor of Li/Na
experimentNotes: Liquid-liquid extraction from aqueous lithium-containing solution, ICP detection: lithium;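 further: component concentrations in the aqueous phase were measured by inductively coupled plasma optical emission spectrometry after shaking and phase separation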
cond: feed B3 (cLi 0.937, cNa 119.10, cK 43.03 g/L, pH 9.60); organic phase and phase ratio per example

Examples from the recorded data:
[[record]]
molecule = "Cc1ccc(C(=O)CC(=O)C(F)(F)F)cc1 [Comparative Example 6, reference compound]"
readoutlabel = "separation factor of Li/Na"
valueobserved = 125.8

[[record]]
molecule = "CCCCCCCCCCCCCCCCCC(=O)CC(=O)c1ccccc1 [Comparative Example 5, stearoylbenzoylmethane, reference compound]"
readoutlabel = "separation factor of Li/Na"
valueobserved = 12.8


Which separation factor of Li/Na is listed for CC(=O)CC(=O)c1ccccc1 [Comparative Example 1, benzoyl acetone, reference compound] ? 19.6

Which separation factor of Li/Na is listed for CCCCCCCCCCOc1ccc(C(=O)c2ccccc2)c(O)c1 [Example 11, 4-decyloxy-2-hydroxydibenzophenone] ? 3.5

Which separation factor of Li/Na is listed for O=C(c1ccccc1)c1cc([N+](=O)[O-])c(OCc2ccccc2)cc1O ? 53.4

Which separation factor of Li/Na is listed for CCCCCCCCOc1cc(O)c(C(=O)c2ccccc2)cc1[N+](=O)[O-] ? 33.2

Which separation factor of Li/Na is listed for O=C(CC(=O)c1ccccc1)c1ccccc1 [Comparative Example 3, 1,3-diphenyl-1,3-propanedione, reference compound] ? 45.3

Which separation factor of Li/Na is listed for CC1=NN(c2ccccc2)C(=O)C1C(=O)c1ccccc1 (centres unmarked) [Comparative Example 7, 1-phenyl-3-methyl-4-benzoyl-5-pyrazolone, reference compound] ? 1.17
